Data origin: PubChem BioAssay AID1159580

- assay.text: chemical genetic growth profiling, strain panel (AID 1159580);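 further: tested at 20 µM; growth read once vehicle control cultures reached saturation at 30 °C; 1 = growth at the plate median or of vehicle wells; lower values mean less growth of the strain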
- assay.conditions: S. cerevisiae deletion strains, growth OD, locus YBR279W, strain paf1, active compounds read low
About 2,000 (36%) of roughly 5,500 compounds were called active. Not shown: some 18% with an inconclusive outcome. The list shows a part of the results.
Entries and their measured normalized growth follow.
quantity.name: normalized growth

{"columns": ["compound", "quantity.name", "result"],
 "data": [
  ["C[C@@H]1CC[C@@]2(OC1)O[C@H]1CC3C4CC[C@H]5C[C@@H](O)CC[C@]5(C)C4CC[C@]3(C)[C@H]1[C@@H]2C (some centres undefined)", "normalized growth", "0.996 (inactive)"],
  ["CC1CCC2(OC1)OC1CC3C4CC[C@H]5C[C@@H](O)CC[C@]5(C)C4CC(=O)[C@]3(C)C1C2C (some centres undefined)", "normalized growth", "1.01 (inactive)"],
  ["CCOCN(C(=O)CCl)c1c(C)cccc1CC", "normalized growth", "0.999 (inactive)"],
  ["C[C@@H]1CC[C@@]2(OC1)OC1CC3C4CC=C5C[C@@H](O)CC[C@]5(C)C4CC[C@]3(C)C1[C@@H]2C (some centres undefined)", "normalized growth", "1 (inactive)"]
]}

----------
- assay.text: chemical genetic growth profiling, strain panel (AID 1159580);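 further: tested at 20 µM; growth read once vehicle control cultures reached saturation at 30 °C; 1 = growth at the plate median or of vehicle wells; lower values mean less growth of the strain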
- assay.conditions: S. cerevisiae deletion strains, growth OD, locus YKR091W, strain srl3, active compounds read low
Hit rate of the full screen: of about 5,500 compounds, about 2,000 (36%) were called active. Not shown: some 18% with an inconclusive outcome. Some of the results follow.

{"columns": ["molecule", "normalized growth"],
 "data": [
  ["CN[C@@H]1[C@@H](O)C(OC2[C@@H](N)C[C@@H](N)[C@H](O[C@H]3O[C@H](C(C)O)[C@@H](O)[C@H](O)[C@H]3N)[C@H]2O)OC[C@]1(C)O (stereo partly drawn)", 0.971],
  ["CCC1OC(=O)[C@H](C)C(=O)[C@H](C)[C@@H](OC2O[C@H](C)C[C@H](N(C)C)[C@H]2O)[C@](C)(OC)C2(CCCn3cnc(-c4cccnc4)c3)C[C@@H](C)C(=O)[C@H](C)[C@H]3N(C2)C(=O)O[C@]13C (stereo partly drawn)", 0.985],
  ["COc1cc(OC)c2c(=O)c(O)c(-c3ccc(OC)c(OC)c3)oc2c1", 0.953],
  ["CC(=O)Oc1ccc2c(c1C(C)C)CCC1C(C)(C)CCC[C@]21C (stereo partly drawn)", 1.01],
  ["O=C(Cc1cccs1)NC1C(=O)N2C(C(=O)[O-])=C(C[n+]3ccccc3)CSC12 (stereo not drawn)", 0.985],
  ["N#Cc1nn(-c2c(Cl)cc(C(F)(F)F)cc2Cl)c(N)c1S(=O)C(F)(F)F (stereo not drawn)", 0.989],
  ["NC(N)=NC(=O)c1nc(Cl)c(N)nc1N", 1.03],
  ["CN[C@@H]1C(O)[C@@H](O[C@@H]2[C@@H](O)[C@H](O[C@H]3OC(CN)=CC[C@H]3N)[C@@H](N)C[C@H]2N)OC[C@]1(C)O (stereo partly drawn)", 1.01],
  ["COc1ccc(Cl)cc1C(=O)NCCc1ccc(S(=O)(=O)NC(=O)NC2CCCCC2)cc1", 0.993],
  ["CC(C)c1c(O)ccc2c1CCC1[C@@](C)(C=O)CCC[C@]21C (stereo partly drawn)", 1.01],
  ["COc1cc(O)c2c(=O)c(O)c(-c3ccc(O)c(O)c3)oc2c1", 0.961],
  ["NC(=O)CN1CCCC1=O", 0.995],
  ["COC(=O)[C@@]1(C)CCC[C@]2(C)c3ccc(O)c(C(C)C)c3CCC12 (stereo partly drawn)", 0.976],
  ["CC/C(=C(/CC)c1ccc(O)cc1)c1ccc(O)cc1", 1.01],
  ["OCC(O)C(O)C(O)C(O)C(O)CO (stereo not drawn)", 0.997],
  ["CCC(c1ccc(O)cc1)C(CC)c1ccc(O)cc1 (stereo not drawn)", 1],
  ["C[C@@H]1O[C@@H](OC[C@H]2OC(Oc3c(-c4ccc(OCCO)c(OCCO)c4)oc4cc(OCCO)cc(O)c4c3=O)[C@H](O)[C@@H](O)[C@@H]2O)[C@H](O)[C@H](O)[C@H]1O (stereo partly drawn)", 0.974],
  ["COC(=O)[C@]1(C)CCC[C@]2(C)c3ccc(C(C)C)cc3C(=O)CC12 (stereo partly drawn)", 0.96]
]}
